endpoint label: IC50 (µM)
Output spec: scalar in µM, unitless text.

Assay UniProt Q9NVM4, sample CC(C)N(CCCNC(=O)Nc1ccc(C(C)(C)C)cc1)C[C@H]1O[C@@H](n2ccc3c(N)ncnc32)[C@H](O)[C@@H]1O , IC50 read: 7.5

* * *

endpoint label: IC50

Kindly note: DNA (cytosine-5)-methyltransferase 3A (Homo sapiens), CCNC(=O)NCCSC[C@H]1O[C@@H](n2cnc3c(N)ncnc32)[C@H](O)[C@@H]1O , IC50 value reported: > 50 µM

* * *

- measured on: PRMT5/MEP50 complex (Homo sapiens)
- Sequence (O14744 whole entry): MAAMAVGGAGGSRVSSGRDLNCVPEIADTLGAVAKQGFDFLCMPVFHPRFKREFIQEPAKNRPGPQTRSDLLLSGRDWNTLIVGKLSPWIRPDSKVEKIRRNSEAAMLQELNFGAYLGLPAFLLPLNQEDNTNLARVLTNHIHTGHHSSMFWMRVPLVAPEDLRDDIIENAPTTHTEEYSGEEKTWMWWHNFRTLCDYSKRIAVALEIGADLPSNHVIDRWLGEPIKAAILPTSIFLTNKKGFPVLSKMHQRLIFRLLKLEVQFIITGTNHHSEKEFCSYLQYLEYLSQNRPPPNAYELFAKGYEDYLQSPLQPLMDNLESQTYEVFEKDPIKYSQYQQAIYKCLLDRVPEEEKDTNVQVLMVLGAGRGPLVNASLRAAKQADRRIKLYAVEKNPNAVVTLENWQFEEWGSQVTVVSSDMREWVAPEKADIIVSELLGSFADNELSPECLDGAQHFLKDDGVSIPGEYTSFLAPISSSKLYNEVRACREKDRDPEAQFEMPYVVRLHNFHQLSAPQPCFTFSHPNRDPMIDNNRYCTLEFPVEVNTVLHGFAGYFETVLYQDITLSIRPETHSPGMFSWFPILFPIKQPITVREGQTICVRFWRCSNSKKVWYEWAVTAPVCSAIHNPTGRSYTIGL
- Sequence (Q9BQA1 whole entry, further chain): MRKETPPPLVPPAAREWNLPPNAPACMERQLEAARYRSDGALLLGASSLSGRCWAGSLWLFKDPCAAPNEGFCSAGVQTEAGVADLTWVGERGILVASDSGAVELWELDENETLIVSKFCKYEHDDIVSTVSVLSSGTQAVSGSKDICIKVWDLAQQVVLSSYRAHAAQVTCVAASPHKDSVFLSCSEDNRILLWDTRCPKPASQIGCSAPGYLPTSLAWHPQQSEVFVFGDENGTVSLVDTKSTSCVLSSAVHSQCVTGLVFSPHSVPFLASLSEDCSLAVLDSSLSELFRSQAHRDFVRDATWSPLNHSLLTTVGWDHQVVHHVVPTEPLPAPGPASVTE
- procedure details: Binding affinity to human full length PRMT5-MEP50 complex by Surface plasmon resonance method
endpoint label: pKd
In plain terms, pKd is the concentration in mol/L turned into minus its base-10 logarithm.

Value (pKd, PRMT5/MEP50 complex (Homo sapiens)) for record CCNC(=O)NCCSC[C@H]1O[C@@H](n2cnc3c(N)ncnc32)[C@H](O)[C@@H]1O = 4.60
